Kindly state selectivity ratio for each of the entries shown.
# MEASUREMENT NOTES: Selectivity index, ratio of CC50 for human MT4 cells to EC50 for Human immunodeficiency virus 1 NL4-3 infected in human MT4 cells
# Format: toxicity, cell-based
# CONDITION: read-out: Ratio CC50/EC50

CCCCCCCC(=O)O[C@H]1C(C)=C[C@]23C(=O)[C@@H](C=C(C)[C@@H](O)[C@]12O)[C@H]1[C@@H](C[C@H]3C)C1(C)C | > 59.9

Please go through the list and note selectivity ratio for each compound.
1. CC1=C[C@]23C(=O)[C@@H](C=C(CO)[C@@H](O)[C@]2(O)[C@H]1O)[C@H]1[C@@H](C[C@H]3C)C1(C)C
2. COc1ccc(C(=O)O[C@@H]2C(C)=C[C@@H]3C(=O)[C@]4(C=C(C)[C@H](O)[C@@]24O)[C@H](C)C[C@@H]2[C@H]3C2(C)C)cc1

1: > 10; 2: > 20

====

# Tested on: MT4
# MEASUREMENT NOTES: Cytotoxicity against human MT4 cells after 3 days by CytoTox-Glo assay
# Format: cell-based
# CONDITION: mt4, 72 h
MEASURED QUANTITY: CC50

CC1=C[C@@H]2C(=O)[C@]3(C=C(C)[C@H](OC(=O)c4ccccc4)[C@@]3(O)[C@@H]1O)[C@H](C)C[C@@H]1[C@H]2C1(C)C | > 9.2 µM
CC(=O)O[C@H]1C(C)=C[C@]23C(=O)[C@@H](C=C(C)[C@@H](OC(=O)c4ccccc4)[C@]12O)[C@H]1[C@@H](C[C@H]3C)C1(C)C | > 8.4 µM
CCCCCCCCCCCC(=O)O[C@@]12C[C@@H](C)[C@]34C=C(C)[C@H](OC(=O)C(C)C(C)C)[C@@]3(O)[C@H](O)C(CO)=C[C@H](C4=O)[C@@H]1C2(C)C (stereo partly specified) | > 6.2 µM
CC1=C[C@@H]2C(=O)[C@]3(C=C(C)[C@H](OC(=O)/C=C/c4ccccc4)[C@@]3(O)[C@@H]1O)[C@H](C)C[C@@H]1[C@H]2C1(C)C | > 8.7 µM
CCCCCCCCCCCC(=O)O[C@@]12C[C@@H](C)[C@]34C=C(C)[C@H](O)[C@@]3(O)[C@H](O)C(CO)=C[C@H](C4=O)[C@@H]1C2(C)C | > 9.2 µM

Consider now this further compound.
Suppose we examine the compound `CC1=C[C@@H]2C(=O)[C@]3(C=C(C)[C@H](O)[C@@]3(O)[C@@H]1OC(=O)c1ccc3ccccc3c1)[C@H](C)C[C@@H]1[C@H]2C1(C)C` ; what CC50 value has been reported?
> 8.2 µM

Hello, the source for this data is ChEMBL document CHEMBL4270568, in case you need it.
